tested on: Nucleic Acid; test: Binding affinity to poly(dAdT)2 assessed as change in melting temperature at drug to DNA ratio of 0.1
metric: ΔTm (°C)

Before answering, review these 6 worked examples.
Cl.Cl.c1cc(-c2ccc(-c3nc4ccc(C5=NCCN5)cc4s3)s2)ccc1C1=NCCN1 | 24.3
c1cc(-c2ccc(-c3nc4ccc(C5=NCCN5)cc4s3)o2)ccc1C1=NCCN1 | 32.4
CC(C)NC(=N)c1ccc(-c2ccc(-c3nc4ccc(C(=N)NC(C)C)cc4s3)o2)cc1 | 27.1
c1cc2nc(-c3ccc(-c4nc5ccc(C6=NCCN6)cc5s4)o3)sc2cc1C1=NCCN1 | 25.3
N=C(N)c1ccc2nc(-c3ccc(-c4nc5ccc(C(=N)N)cc5s4)s3)sc2c1 | 5.1
N=C(N)c1ccc2nc(-c3ccc(-c4nc5ccc(C(=N)N)cc5s4)o3)sc2c1 | 23.2

a. CC(C)NC(=N)c1ccc(-c2ccc(-c3nc4ccc(C(=N)NC(C)C)cc4s3)s2)cc1.Cl.Cl
b. c1cc2nc(-c3ccc(-c4nc5ccc(C6=NCCN6)cc5s4)s3)sc2cc1C1=NCCN1
QUERY: Thinking about recorded ΔTm values, which is higher, a or b ? Kindly state the label of the option you pick.
RESULT: a
